Each recorded value in this set is attributed to paper PMC6856185.

Target: Piezo1 (Rattus norvegicus, UniProt Q0KL00)
Construct: native channel in INS-1 832/13 and BRIN-BD11 rat β-cell lines
Sequence (Q0KL00 whole entry): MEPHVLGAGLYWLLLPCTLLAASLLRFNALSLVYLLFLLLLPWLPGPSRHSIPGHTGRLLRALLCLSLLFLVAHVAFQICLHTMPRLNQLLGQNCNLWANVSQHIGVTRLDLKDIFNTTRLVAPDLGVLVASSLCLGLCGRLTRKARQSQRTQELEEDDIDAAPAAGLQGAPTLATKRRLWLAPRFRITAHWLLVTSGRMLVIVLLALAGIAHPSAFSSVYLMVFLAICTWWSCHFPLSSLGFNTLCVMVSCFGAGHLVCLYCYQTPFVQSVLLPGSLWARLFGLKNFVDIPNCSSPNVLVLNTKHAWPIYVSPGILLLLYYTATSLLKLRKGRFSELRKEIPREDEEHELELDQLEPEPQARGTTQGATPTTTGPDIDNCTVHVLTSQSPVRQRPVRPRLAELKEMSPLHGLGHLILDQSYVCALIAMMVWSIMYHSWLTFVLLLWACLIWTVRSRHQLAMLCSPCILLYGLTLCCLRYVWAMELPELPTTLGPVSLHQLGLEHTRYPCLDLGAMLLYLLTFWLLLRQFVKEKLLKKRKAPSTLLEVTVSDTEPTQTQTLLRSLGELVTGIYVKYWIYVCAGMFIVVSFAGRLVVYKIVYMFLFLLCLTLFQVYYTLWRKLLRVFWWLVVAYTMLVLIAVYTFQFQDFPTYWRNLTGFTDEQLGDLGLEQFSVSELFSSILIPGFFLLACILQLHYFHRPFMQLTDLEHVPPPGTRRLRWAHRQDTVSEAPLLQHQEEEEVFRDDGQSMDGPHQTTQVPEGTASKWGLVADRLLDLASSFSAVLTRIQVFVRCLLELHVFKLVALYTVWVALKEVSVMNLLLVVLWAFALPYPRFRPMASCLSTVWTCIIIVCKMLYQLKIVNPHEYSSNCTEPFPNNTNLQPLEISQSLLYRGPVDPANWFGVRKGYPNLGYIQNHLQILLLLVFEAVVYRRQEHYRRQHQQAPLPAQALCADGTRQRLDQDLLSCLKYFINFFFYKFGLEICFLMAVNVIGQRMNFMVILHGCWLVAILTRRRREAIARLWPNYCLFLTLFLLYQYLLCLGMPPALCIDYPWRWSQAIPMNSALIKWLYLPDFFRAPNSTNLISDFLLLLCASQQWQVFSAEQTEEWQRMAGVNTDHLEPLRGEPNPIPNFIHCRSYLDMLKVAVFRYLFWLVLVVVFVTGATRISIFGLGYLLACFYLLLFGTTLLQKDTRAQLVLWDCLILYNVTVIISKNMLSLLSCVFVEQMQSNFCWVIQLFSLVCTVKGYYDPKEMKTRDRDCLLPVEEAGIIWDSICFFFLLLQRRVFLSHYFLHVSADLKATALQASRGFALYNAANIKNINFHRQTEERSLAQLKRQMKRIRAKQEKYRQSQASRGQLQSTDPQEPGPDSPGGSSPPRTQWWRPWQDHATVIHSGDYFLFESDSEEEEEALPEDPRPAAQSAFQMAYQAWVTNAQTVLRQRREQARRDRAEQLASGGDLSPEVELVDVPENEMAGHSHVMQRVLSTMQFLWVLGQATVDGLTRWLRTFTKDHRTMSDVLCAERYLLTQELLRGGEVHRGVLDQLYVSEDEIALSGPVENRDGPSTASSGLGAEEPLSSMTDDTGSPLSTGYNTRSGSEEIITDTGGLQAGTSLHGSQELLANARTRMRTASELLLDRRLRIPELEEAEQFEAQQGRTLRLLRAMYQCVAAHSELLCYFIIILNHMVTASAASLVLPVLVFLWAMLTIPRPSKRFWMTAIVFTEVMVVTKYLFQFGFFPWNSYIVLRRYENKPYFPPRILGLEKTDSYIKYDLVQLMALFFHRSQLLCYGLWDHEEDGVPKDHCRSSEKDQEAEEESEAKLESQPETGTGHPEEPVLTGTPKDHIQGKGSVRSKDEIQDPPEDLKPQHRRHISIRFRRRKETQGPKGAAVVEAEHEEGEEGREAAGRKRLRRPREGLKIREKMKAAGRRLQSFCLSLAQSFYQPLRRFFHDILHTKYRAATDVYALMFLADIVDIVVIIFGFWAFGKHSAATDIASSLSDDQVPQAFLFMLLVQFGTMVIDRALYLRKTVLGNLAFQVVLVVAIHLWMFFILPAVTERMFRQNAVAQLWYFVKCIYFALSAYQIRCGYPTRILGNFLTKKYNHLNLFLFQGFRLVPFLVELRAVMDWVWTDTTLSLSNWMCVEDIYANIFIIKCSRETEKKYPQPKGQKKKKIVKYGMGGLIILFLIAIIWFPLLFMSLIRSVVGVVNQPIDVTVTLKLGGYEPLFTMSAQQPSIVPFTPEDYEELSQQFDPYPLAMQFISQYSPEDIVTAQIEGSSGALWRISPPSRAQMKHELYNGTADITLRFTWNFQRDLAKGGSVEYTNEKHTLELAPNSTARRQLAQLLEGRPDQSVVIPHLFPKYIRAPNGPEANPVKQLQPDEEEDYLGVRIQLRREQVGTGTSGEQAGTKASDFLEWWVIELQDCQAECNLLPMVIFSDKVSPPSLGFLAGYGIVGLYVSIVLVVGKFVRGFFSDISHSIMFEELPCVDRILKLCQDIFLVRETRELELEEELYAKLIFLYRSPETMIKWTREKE
Assay: fura-2 Ca2+ influx and whole-cell patch-clamp in INS-1 cells; Piezo1 siRNA reduced Yoda1-induced insulin release
pEC50: −log10 of the molar value.
Measured parameter: pEC50

### Prompt Need pEC50 of Clc1cccc(Cl)c1CSc1nnc(-c2cnccn2)s1 [Yoda1] , thanks.
### Response ~5.40
